Origin of the recorded values: patent US20110086770A1

- Assay system: recombinant human DR 5 receptor Fc fusion protein (R&D Systems) (human)
- Sequence (chain, as listed by the source): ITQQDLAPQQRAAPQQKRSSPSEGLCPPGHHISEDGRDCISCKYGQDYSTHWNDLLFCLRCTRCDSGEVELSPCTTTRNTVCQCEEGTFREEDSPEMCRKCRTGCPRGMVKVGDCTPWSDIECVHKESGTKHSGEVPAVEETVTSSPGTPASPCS
- Assay name: SPR (Biacore), captured DR5/Fc
Recorded koff by entry
# number only, unit s⁻¹ dropped from output

Binder	Display unit	koff
1a7b (=A8G) DR 5 ATRIMER (designed binder, Homotrimer (ATRIMER) of this chain; one protomer is given., also called 029-15.A8G; not shown: C-terminal tag (His/Myc of pANA4, HA-StrepII of pANA10, or that of pANA19)) EPPTQKPKKIVNAKKDVVNTKMFEELKSRLDTLAQEVALLKEQQALQTVCLKGTKVHMKCFLAFTQTKTFHEASEDCISRGGTLSTPQTGSENDALYEYLRQSVGNEAEIWLGLNRAWLRPRWVDMTGARIAYKNWETEITAQPDGGTLVSGENCAVLSGAANGKWFDKRCRDQLPYICQFGIV	s⁻¹	0.000629
8b6b (=A1H) DR 5 ATRIMER (designed binder, Homotrimer (ATRIMER) of this chain; one protomer is given., also called 029-15.A1H; not shown: C-terminal tag (His/Myc of pANA4, HA-StrepII of pANA10, or that of pANA19)) EPPTQKPKKIVNAKKDVVNTKMFEELKSRLDTLAQEVALLKEQQALQTVCLKGTKVHMKCFLAFTQTKTFHEASEDCISRGGTLSTPQTGSENDALYEYLRQSVGNEAEIWLGLNRAVLRPRWVDMTGARIAYKNWETEITAQPDGGWVLGGKNCAVLSGAANGKWFDKRCRDQLPYICQFGIV	s⁻¹	0.000506
9b3d (=B3D) DR 5 ATRIMER (designed binder, Homotrimer (ATRIMER) of this chain; one protomer is given., also called 029-15.B3D; not shown: C-terminal tag (His/Myc of pANA4, HA-StrepII of pANA10, or that of pANA19)) EPPTQKPKKIVNAKKDVVNTKMFEELKSRLDTLAQEVALLKEQQALQTVCLKGTKVHMKCFLAFTQTKTFHEASEDCISRGGTLSTPQTGSENDALYEYLRQSVGNEAEIWLGLNELRTDGLWVDMTGARIAYKNWETEITAQPDGGVMRRSENCAVLSGAANGKWFDKRCRDQLPYICQFGIV	s⁻¹	0.000104

Now look at this entry.
Need koff, item 2a1a (=B9F) DR 5 ATRIMER (designed binder, Homotrimer (ATRIMER) of this chain; one protomer is given., also called 029-15.B9F; not shown: C-terminal tag (His/Myc of pANA4, HA-StrepII of pANA10, or that of pANA19)) EPPTQKPKKIVNAKKDVVNTKMFEELKSRLDTLAQEVALLKEQQALQTVCLKGTKVHMKCFLAFTQTKTFHEASEDCISRGGTLSTPQTGSENDALYEYLRQSVGNEAEIWLGLNKRVWYRGWVDMTGARIAYKNWETEITAQPDGGMRRRRENCAVLSGAANGKWFDKRCRDQLPYICQFGIV 0.00184
